- assay: yeast display, Sf9 membrane polyspecificity reagent, FACS + sequencing; frameworks hold sequencing errors

sequenceCode: QVQLVESGGGLVQAGGSLRLSCAASGRIFVYYDMGWYRQAPGKEREVVAAISSTGGSTNYADSVKGRFTISRDNAKNTVYLQMNSLKPEDTAVYYCNAALWRIAYPYGYYQYDYWGQGTQVTVSS
polyreactivity (PSR sort gate): low polyreactivity
//
sequenceCode: QVQLVESGGGLVQAGGSLRLSCAASGSTFGGYAMGWYRQAPGKERELVAAISQSGTRSYYADSVKGRFTISRDNAKNTVYLQMNSLKPEDTAVYYCAAEKRFRKYDYWGQGTQVTVSS
polyreactivity (PSR sort gate): high polyreactivity
//
sequenceCode: QVQLVESGGGLVQAGGSLRLSCAASGRILVSYARGWYRQAPGKERELVAGITSGGDSTYYADSVKGRFTISRDNAKNTVYLQMNSLKPADTAVYSCAADRYGYRGRKNVRERYNYWGQGTQVTVSS
polyreactivity (PSR sort gate): high polyreactivity
//
sequenceCode: QVQLVESCGGLVQAGGSLRLSCAASGSTFVHNAMGWNRQAPGKESELVAAITSRTGITYYADSLKGRFTISRDNAKNTFYLEMNSLKPEDTSVFYCAKRHVRTHRLQFDYWGQGTQVTVSS
polyreactivity (PSR sort gate): high polyreactivity
//
sequenceCode: QVQLVESGGGLVQAGGSLRLSCAASGSTFSRYAMGWYRQAPGKEMELVAAISWSGGSTYYADSVKGRFTISRDNAKNTVYLQMNSLKPEDTAVYYCAAYTYSFRANHDYWGQGTQVTVTS
polyreactivity (PSR sort gate): high polyreactivity
//
sequenceCode: QVQLVESGGGLVQAGGSLRLSCAASGIIFDYYAMGWYRQAPGKERELVAGISQRGGSTYYADSVKGRFTISRDNAKITVYLQMNSLKPEDTAVYYWAAYTRSCEGHRGGYWGQGTQVTVSS
polyreactivity (PSR sort gate): high polyreactivity
//
sequenceCode: QVQLVESGGGLVQAGGSLRLSCAASGLTLPYNAMGSYRQAPGKERELVAAITCIGGSTYYADSVKGRFTISRDNAKNTVYLEMNSLKPEDSAVYYCAKEVRGPIIYLEGYWGQGTQVTVSS
polyreactivity (PSR sort gate): low polyreactivity
//
sequenceCode: QVQLVESGGGLVQAGGSLRLSCAASGSTLLIYVMGWYRQAPGKERELVAAISKRSGSTYYADSVKGRFTISRDNAKNTVYLHMNSLKPEDTAVYYCATRPYVRWYDYWGQATQVTVSS
polyreactivity (PSR sort gate): high polyreactivity
//
sequenceCode: QVQLVESGGGLVQAGGSLRLSCAASGSTFRIYAMGWYRQAPGKERELVAAISRSGGSTYYADSVKGRFTISRDNAKNTVYLQMNSLKPEDTAVYYCAAQPSYRYYKSYDYWGQGTQVTVSS
polyreactivity (PSR sort gate): high polyreactivity
//
sequenceCode: QVQLVQSGGGLVQAGGSLSLSCAASGSIFNYNAMGWYRQAPGKERELVAAITSADGRTFYADSVKGRFTISRDNAKNTVYLQMNSLKPEDTAVYYCAAERTSRYSTYEYWGQGTQVTVSS
polyreactivity (PSR sort gate): low polyreactivity
//
sequenceCode: QVQLVESGGGLVQAGGSLRLSCAASGRIFGYYVMGWYRQAPGTERELVAAITGGGGSTYYADSVKGRFTISRDNAKNTVYLQMNSLKPEDNAVYYCAADLEDTTYEYDYWGQGTQVTVSS
polyreactivity (PSR sort gate): high polyreactivity
//
sequenceCode: QVQLVESGGGLVQAGGSLRLSCAASGRTFGYYAMGWYRQAPGQERELVAAISWSDSGTYYADSVKGRFTISRDNAKNTVYLQMNSLKPEDTAVYYCAKDEPYFVFRDTYDYWGQGTQVTVSS
polyreactivity (PSR sort gate): high polyreactivity
//
sequenceCode: QVQLVESRGGLVQAGGSLRLSCAASGYIFRSNAMGWYRQAPGKERELVAAITRSGGSTYYADSVKGRFTISRDNAKITVFLQMNSLKPEDTAVYYCAVLPRGSNGMDYWGQGTQVTVSS
polyreactivity (PSR sort gate): low polyreactivity
//
sequenceCode: QVQLVESGGGLVQAGGSLRLSCAASGSTFDHYAMGWYRQAPGKERELVASITLSGGSTYYADSVKGRFTISRDNAKNTVYLQMNSLKPEDTAVYYCNVDYPFYQYGYYYNYNYWGQGTQVTVSS
polyreactivity (PSR sort gate): low polyreactivity
//
sequenceCode: QVQLVESGGRLVQAGGSLRLSCAASGRTFQSYAMGWYRQAPGKERELVAAITITGGRTYYADSVKGRFTISRDNAKNTVYLQMNSLKPEDTAVYYCAAEEYSHYTLGYDYWGQGTQVTVSS
polyreactivity (PSR sort gate): low polyreactivity

Source listed as the nanobody polyreactivity screen of Harvey et al. (2022).
